Where these numbers come from: the nanobody polyreactivity screen of Harvey et al. (2022)

Experiment: yeast display, Sf9 membrane polyspecificity reagent, FACS + sequencing; frameworks hold sequencing errors
measured attribute: polyreactivity (PSR sort gate)

QDQQVESGGGLVQAGGSLRLSSAASGRTFGTYALGWYRQARGNERELVAAITKSGGSTYYADSVKGRFIISRDNAKNTVYLQMNSLKPEDTAVYYCAAAVPRYRVYYWGQGTQVTVSS | high polyreactivity
QVQLVESGGGLVQAGGSLRLSCAPSGRIFPRNAMGWYRQAPGKERELVAAITKSGGSTYYADSVKGRFTISRDNAKNTVYLQMNSLKPEDTAVYYCNAVQYRNYYWGQGTQVTVSS | high polyreactivity

###

Assay: yeast display, Sf9 membrane polyspecificity reagent, FACS + sequencing; frameworks hold sequencing errors
measured attribute: polyreactivity (PSR sort gate)

QVQLVESGGGLVQAGGSLRLSCAASGFTFIYYAMGWYRQARGKERELVAAISRGDSTYYADSVKGRFTISRDNAKNTVYLQMISLKPEDTAVYYCAAASHVRRDHGYWGEGTQVTVSS | low polyreactivity
QVQLVESGGGLVQAGGSLRLSCAASGRIFGKYAMGWYRQAPGKERELVAVITSRDGRTYYADSVKGRFTISRDNAKNTVYLQMNSLKPEDTAVYYCAADLVNGHYYYWGQGTQVTVSS | low polyreactivity
QVQLVESGGGLVQAGGSLRLSCAASGSTFYRNAMGWYRQAPGKERELVAAISRRSGTTYYADSVKGRFTISRDNAKNTVYLQMNSLKPEDTSVYYCATVRGGYDYWGQGTQVTVSS | high polyreactivity
QVQLVESGGGLVQAGGSLRLSCAASGNNFRYNAMVWYRQAPGKERELVAAISSVGTTNYADSVKGRFTISRDNAKNTVYLQMNSLKPEDTAVYYCAAVDYQGGYWYDYWGQGTQVTVSS | low polyreactivity
QVQLVESGGGLVQAGGSLRLSCAASGRTYGYAMGWYRQAPGKERELVARITWRGGSTSYADSVKGRFTISRDNAKNTVYLQMNSLKPEDTAVYYCAAGFYFPVYTYVRKRYYYWGQGTQVTVSS | high polyreactivity
QVQLVDSGGGLVQAGGILRLSCPASGLIIRKNAMGWYRQAPGKERELVAAISYNGASTYYADSVKGRFTISRDNAKNTVYLQMNSLKPEDTAVYYCAAYAGYSDQARYYYWGQGTQVTVSS | high polyreactivity

The reported polyreactivity (PSR sort gate) of the sequence QVQLVESGGGLVQAAGSLPLSCAASGSTLLNYAMGWYRQAPGKQSQLVAAISSSGGRTYYADSVKGRFTISRDNAKNTVYLQMNSLKPEDTAVYYCNKGLGYPKTFGYWGQGTQVTVSS was high polyreactivity
